subjectOfTest: 5-lipoxygenase (Rattus norvegicus)
Construct: The activities of these enzymes in extracts of RBL-1 cells were assayed; host or cells: RBL-1 cells, supernatant of broken cell extract
Sequence (P12527 1-673): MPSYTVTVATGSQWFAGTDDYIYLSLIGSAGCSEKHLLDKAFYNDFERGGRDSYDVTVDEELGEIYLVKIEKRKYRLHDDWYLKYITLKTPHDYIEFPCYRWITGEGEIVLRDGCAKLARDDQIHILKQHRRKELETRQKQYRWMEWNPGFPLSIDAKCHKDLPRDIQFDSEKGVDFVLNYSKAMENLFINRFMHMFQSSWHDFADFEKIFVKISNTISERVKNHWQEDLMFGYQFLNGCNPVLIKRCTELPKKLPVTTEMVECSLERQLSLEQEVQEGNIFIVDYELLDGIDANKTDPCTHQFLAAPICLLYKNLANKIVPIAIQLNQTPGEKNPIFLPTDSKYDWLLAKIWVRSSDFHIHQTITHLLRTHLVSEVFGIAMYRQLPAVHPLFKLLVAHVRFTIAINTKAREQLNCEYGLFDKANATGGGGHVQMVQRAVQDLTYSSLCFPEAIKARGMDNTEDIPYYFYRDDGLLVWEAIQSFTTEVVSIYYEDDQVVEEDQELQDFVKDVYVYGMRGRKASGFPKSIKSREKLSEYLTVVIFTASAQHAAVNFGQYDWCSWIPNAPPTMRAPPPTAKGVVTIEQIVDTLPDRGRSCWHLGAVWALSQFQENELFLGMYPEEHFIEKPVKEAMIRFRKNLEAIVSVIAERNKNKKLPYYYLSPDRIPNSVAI
methodDescription: 5-lipoxygenase activity: LTB4 production by RBL-1 high speed supernatant
Type: biochemical
runConditions: RBL1 high speed supernatant; read-out: 5LO IC50 (LTB4 Production)
measuredMetric: pIC50
Field pIC50 (float): negative decimal logarithm of the concentration in molar.

Before answering, review these 2 worked examples.
1) Fc1ccc(-c2[nH]c(S)nc2-c2ccncc2)cc1: 5.82
2) N#CNc1nc(-c2ccc(F)cc2)c(-c2ccc(F)cc2)[nH]1: 6.00

Qu. // returns reported pIC50 for input COc1ccc(-c2nc(NC#N)[nH]c2-c2ccc(OC)cc2)cc1
Ans. 5.82

Qu. Please report the recorded pIC50 for Fc1ccc(-c2nc(-c3ccc(F)cc3)c(-c3ccc(F)cc3)[nH]2)cc1 .
Ans. 5.00

Qu. Value lookup for pIC50; key = CCSc1nc(-c2ccc(OC)cc2)c(-c2ccc(OC)cc2)n1CC
Ans. 5.08

Qu. Quick one: pIC50 of O=S(=O)(c1nc(-c2ccc(F)cc2)c(-c2ccc(F)cc2)[nH]1)C(F)(F)C(F)F ?
Ans. 5.18

Qu. I'd like to know its pIC50. The molecule in question is COc1ccc(-c2nc(SC)n(C)c2-c2ccc(OC)cc2)cc1
Ans. 4.89

Qu. Would you mind telling me what pIC50 value was observed for COc1ccc(-c2nc(C(F)(F)F)[nH]c2-c2ccc(OC)cc2)cc1 ?
Ans. 5.96
